System: Plasmodium falciparum
ASSAY_PROCEDURE: Antimalarial activity against drug resistant Plasmodium falciparum 7G8
Format: functional, organism-based
MEASUREMENT_NAME: EC50

The value of EC50 recorded for `O=C(NCCN1CCCC1)c1cc(-c2ccc(CN3CCOCC3)cc2)nc2ccc(F)cc12` when tested on Plasmodium falciparum reads < 1 nM

----------
ASSAY_PROCEDURE: Intrinsic clearance in mouse liver microsomes
Type: ADME, Microsome
MEASUREMENT_NAME: Intrinsic clearance (mL/min/g)
Write down the numeric answer in mL/min/g and omit the unit.

Cc1ccc(-c2cc(C(=O)Nc3cccnc3)c3cc(F)ccc3n2)cc1 : 8.6

Now take the following compound into account.
Notebook: `Cc1ccc(-c2cc(C(=O)NCCN3CCCC3)c3cc(F)ccc3n2)cc1` , Intrinsic clearance read as 3.4

----------
ASSAY_PROCEDURE: Selectivity index, ratio of CC50 for human MRC5 cells to EC50 for antimalarial activity against Plasmodium falciparum 3D7
Type: toxicity
ASSAY_CONTEXT: read-out: Selectivity Index
MEASUREMENT_NAME: selectivity ratio

Notebook: `Cc1ccc(-c2cc(C(=O)Nc3cccnc3)c3cc(Br)ccc3n2)cc1` , selectivity ratio read as > 100

----------
ASSAY_PROCEDURE: Aqueous solubility of compound
Type: physicochemical
MEASUREMENT_NAME: solubility (µM)
Write down the numeric answer in µM and omit the unit.

Notebook: `Cc1ccc(-c2cc(C(=O)Nc3cccnc3)c3cc(F)ccc3n2)cc1` , solubility read as 36
